Test system: Plasmodium berghei
Test: In vivo antimalarial activity against Plasmodium berghei in mice (Mus musculus) as maximum dose tested
Type: functional
measurementType: Dose
Provide the measurement as a number trailed by its unit.

Which Dose is listed for `Cl.Cl.Cl.Cl.c1ccc(CNCCCNCCCCCNCCCNCc2ccccc2)cc1` ?
30 mg/kg

Then what about the molecule `CCc1ccc(CNCCCNCCCCCCCNCCCNCc2ccc(CC)cc2)cc1.Cl.Cl.Cl.Cl` ?
30 mg/kg

And then `Cl.Cl.Cl.Cl.c1ccc(CNCCCNCCCCCCNCCCNCc2ccccc2)cc1` , what is it?
30 mg/kg

What do we get for `Cl.Cl.Cl.Cl.c1ccc(CNCCNCCCCCCCCNCCNCc2ccccc2)cc1` ?
30 mg/kg

Same question for CC(CCNCCCCCCCNCCC(C)NCc1ccccc1)NCc1ccccc1.Cl.Cl.Cl.Cl (stereo unspecified) please.
100 mg/kg

# repeat for `Cl.Cl.Cl.Cl.c1ccc(CNCCCNCCCCNCCCNCc2ccccc2)cc1`
30 mg/kg
